# experimental.protocol: NCI Yeast Anticancer Drug Screen. Data for the sgs1 mgt1 strain (AID 161);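 further: 0% = growth of cultures given vehicle only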
# stated.conditions: S. cerevisiae sgs1 mgt1 strain, at 50.0 µM, stronger effect = higher value
About 79,000 compounds went through this panel and 15% of them were active in at least one assay; those are over-represented in the sample as a whole. Where a SMILES comes first, the peptide text is derived from it. [ ]: non-standard residue; d: D form. The star is where a group is joined. NMeAc5c = CNC1(C(=O)O)CCCC1; Boc = CC(C)(C)OC(=O)*; OBn = c1ccc(CO*)cc1
measurement.kind: growth inhibition (%)
One number for each entry, in %.

Guide cases for growth inhibition, answers given:
CCCCCCCC/C=C\CCCCCCCCCCCC(=O)O :: 0.4
O=[N+]([O-])c1ccc(N/N=C2/C(=C/c3cccc4ccccc34)CCc3ccccc32)c([N+](=O)[O-])c1 :: -20.8
C/C(CC(=O)Nc1ccc([N+](=O)[O-])cc1)=N/N=C(N)N :: -8.6
O=C1c2cccc(O)c2C(=O)c2c(OC3OC(CO)C(OC4OC(CO)C(O)C(O)C4O)C(O)C3O)cccc21 (centres undefined) :: 32.5

Below is a list of compounds. For each, state its recorded growth inhibition.
1. CCCCc1c2c([n+]([O-])c3c1CCCC3)CCCC2
2. C/C(=N/NC(N)=O)C1c2ccccc2Cc2ccccc21
3. Cc1csc2nc(-c3cccs3)nn12
4. NS(=O)(=O)c1nc(S(=O)(=O)O)c2[nH]cnc2n1
5. O=C1OC(=O)C2C1C1c3ccccc3C2(Br)c2ccccc21 (centres undefined)
6. CCC(=O)OCC[N+](C)(C)C
7. CC(C)(C)C(=O)c1ccc(-c2ccccc2)cc1
8. CN1CCN(C(=S)N(C(=O)c2ccco2)c2ccccc2)CC1

1. 54.1
2. 4.85
3. 7.4
4. -6.75
5. -0.45
6. -22.9
7. -6.45
8. -22.6

Kindly give each listed record's growth inhibition.
1. Nc1c(I)cc([N+](=O)[O-])cc1I
2. CC(C)CCC[C@@H](C)[C@H]1CC[C@H]2[C@@H]3CC=C4C[C@@H](OC(=O)c5cccc6c(=O)c7ccccc7[nH]c56)CC[C@]4(C)[C@H]3CC[C@]12C
3. CN(C(=O)C(Cc1ccccc1)NC(=O)OC(C)(C)C)C1(C(=O)NC(Cc2ccccc2)C(=O)OCc2ccccc2)CCCC1 (stereo not drawn) (Boc-Phe-[NMeAc5c]-Phe-OBn; configuration not given here)
4. ClCC1CCCO1 (centres undefined)
5. O=C(O)/C=C/C(=O)Nc1ncn[nH]1
6. FC(F)(F)C1(C(F)(F)F)C2CCC3(CC(F)(F)C(F)(F)S3)C1C2 (centres undefined)
7. N#C/C(=C\c1cccnc1)c1ccc(Br)cc1

[18, 3.3, -4.5, 31.1, -22.9, -4.25, 41.8]

* * *

# experimental.protocol: NCI Yeast Anticancer Drug Screen. Data for the mec2-1 strain (AID 157)
# stated.conditions: S. cerevisiae mec2-1 strain, at 50.0 µM, stronger effect = higher value
This is part of a sample that, as a whole, favours compounds with a hit. Of some 79,000 tested, about 15% had one in any assay. Activity calls are given as the source filed them. Rule as the data show it: active = growth inhibition above about 70%; inactive = the rest.
measurement.kind: growth inhibition

CC1(C)C(CBr)=[N+]([O-])C(C)(C)N1O :: -0.6% (inactive)
BrC1CC1(c1ccccc1)c1ccccc1 (stereo not given) :: 0.35% (inactive)

Please give growth inhibition, item by item, for the list that follows.
1. CCOC(=O)NC(=O)c1cn(CCCCCOC(=O)NCCCCCCNC(=O)OCCCCCn2cc(C(=O)NC(=O)OCC)c(=O)[nH]c2=O)c(=O)[nH]c1=O
2. c1scc2c1COCCOCCOCCOCc1cscc1COCCOCCOCCOC2
3. CC(=O)OCC(OC(C)=O)C(OC(C)=O)C(/C=C/[N+](=O)[O-])OC(C)=O (stereo not given)
4. CCCC(=O)OCc1ccccc1
5. CC1CCCCN1CCCO (stereo not given)

["13.2% (inactive)", "-26.1% (inactive)", "3.65% (inactive)", "11.9% (inactive)", "-32.4% (inactive)"]

Need growth inhibition for each of these molecules.
1. Cc1ccc(/C=N/NC(N)=O)cc1
2. Cc1c([N+](=O)[O-])ccc2c1C(=O)c1ccccc1C2=O
3. CC(=O)OC1COC(n2c(=S)n(-c3ccccc3)c(=O)c3cc(Br)ccc32)C(OC(C)=O)C1OC(C)=O (stereo not given)
4. Cc1ccc(/C=N/NC2=NCCN2)s1
5. NC1=NN(O)C2=CC(Br)C=CC2=N1 (stereo not given)
6. COC1=C(O)C(=O)C(OC)=C(O)C1=O
7. O=S(=O)(N/N=C/c1c(Cl)cccc1Cl)c1ccccc1
8. CC(C)(C)c1ccc(OC(=O)NCCCCCCNC(=O)Oc2ccc(C(C)(C)C)cc2)cc1

15.8% (inactive)
-0.35% (inactive)
-5.4% (inactive)
8% (inactive)
-7.4% (inactive)
-8.65% (inactive)
12.1% (inactive)
23.9% (inactive)

// each listed molecule needs a value for growth inhibition
1. CCN(CC)Cc1cc(N=Nc2cccc3ccccc23)c2ccccc2c1O
2. CCOP(=O)(OCC)C([O][Sb]([O]CC(C)Cl)[O]CC(C)Cl)c1ccc(OC)cc1 (stereo not given)
3. O=C(CC(=O)c1cccc([N+](=O)[O-])c1)C(=O)Nc1ccccc1

1: 11.4% (inactive); 2: -4.85% (inactive); 3: -28.8% (inactive)

For every item in the list below, what is its measured growth inhibition?
1. O=C=Nc1cccc([N+](=O)[O-])c1
2. CCCCCCCCC(=O)Nc1nc2nc[nH]c2c(=O)[nH]1

1: -5.7% (inactive); 2: -33.2% (inactive)
